Please respond with reported pIC50 for every item in the list.
# pIC50 = -log10(concentration in molar units)

input: Lab note: need pIC50 for O=c1cc(-c2ccccc2)oc2cc(OCC[Te]c3ccc(Cl)cc3)cc(O)c12 on SARS-CoV-2 M^pro (Severe acute respiratory syndrome coronavirus 2, UniProt P0DTD1), anyone have it?
output: 5.66

input: Lab note: need pIC50 for Cc1ccc([Se]c2c(O)cc(O)c3c(=O)c(O)c(-c4ccc(O)c(O)c4)oc23)cc1 on SARS-CoV-2 M^pro (Severe acute respiratory syndrome coronavirus 2, UniProt P0DTD1), anyone have it?
output: 4.96

input: Lab note: need pIC50 for CCCC[Se]c1c(O)cc(O)c2c(=O)c(O)c(-c3ccc(O)c(O)c3)oc12 on SARS-CoV-2 M^pro (Severe acute respiratory syndrome coronavirus 2, UniProt P0DTD1), anyone have it?
output: 4.62

input: Lab note: need pIC50 for O=c1c(O)c(-c2ccc(O)c(O)c2)oc2c([Se]c3ccccc3)c(O)cc(O)c12 on SARS-CoV-2 M^pro (Severe acute respiratory syndrome coronavirus 2, UniProt P0DTD1), anyone have it?
output: 5.29

---

Please respond with reported IC50 for every item in the list.
Numbers only here, please. The scale is µM.

input: Lab note: need IC50 for O=c1cc(-c2ccccc2)oc2cc(OCC[Te]c3ccccc3)cc(O)c12 [compound 8] on SARS-CoV-2 M^pro (Severe acute respiratory syndrome coronavirus 2, UniProt P0DTD1), anyone have it?
output: 3.3

input: Lab note: need IC50 for COc1ccc([Se]c2c(O)cc(O)c3c(=O)c(O)c(-c4ccc(O)c(O)c4)oc23)cc1 [2e] on SARS-CoV-2 M^pro (Severe acute respiratory syndrome coronavirus 2, UniProt P0DTD1), anyone have it?
output: 3

input: Lab note: need IC50 for O=c1c(O)c(-c2ccc(O)c(O)c2)oc2c([Se]c3ccccc3)c(O)c([Se]c3ccccc3)c(O)c12 [compound 3] on SARS-CoV-2 M^pro (Severe acute respiratory syndrome coronavirus 2, UniProt P0DTD1), anyone have it?
output: 13

---

System: SARS-CoV-2
Settings: 75 µM; Vero cells, 2 days
Endpoint: Inhibition of the virus-caused cytopathic effect (CPE)

Before answering, review these 4 worked examples.
# Smiles structure, Result
records = [
    ("O=c1c(O)c(-c2ccc(O)c(O)c2)oc2cc(O)cc(O)c12", "-"),
    ("O=c1c(O)c(-c2ccc(O)c(O)c2)oc2c([Se]c3ccccc3)c(O)c([Se]c3ccccc3)c(O)c12", "tox"),
    ("Cc1ccc([Se]c2c(O)cc(O)c3c(=O)c(O)c(-c4ccc(O)c(O)c4)oc23)cc1", "+"),
    ("COc1ccc([Se]c2c(O)cc(O)c3c(=O)c(O)c(-c4ccc(O)c(O)c4)oc23)cc1", "tox"),
]

input: Any idea what its Inhibition of the virus-caused cytopathic effect (CPE) is? The molecule is O=c1c(O)c(-c2ccc(O)c(O)c2)oc2c([Se]c3ccccc3)c(O)cc(O)c12
output: tox

---

Ki, SARS-CoV-2 M^pro (Severe acute respiratory syndrome coronavirus 2), per-entry values.
Numbers only here, please. The scale is µM.

input: Lab note: need Ki for O=c1c(O)c(-c2ccc(O)c(O)c2)oc2c([Se]c3ccccc3)c(O)cc(O)c12 [2a] on SARS-CoV-2 M^pro (Severe acute respiratory syndrome coronavirus 2), anyone have it?
output: 1.8

input: Lab note: need Ki for CCCC[Se]c1c(O)cc(O)c2c(=O)c(O)c(-c3ccc(O)c(O)c3)oc12 [2c] on SARS-CoV-2 M^pro (Severe acute respiratory syndrome coronavirus 2), anyone have it?
output: 8.6

input: Lab note: need Ki for COc1ccc([Se]c2c(O)cc(O)c3c(=O)c(O)c(-c4ccc(O)c(O)c4)oc23)cc1 [2e] on SARS-CoV-2 M^pro (Severe acute respiratory syndrome coronavirus 2), anyone have it?
output: 1.1

input: Lab note: need Ki for O=c1c(O)c(-c2ccc(O)c(O)c2)oc2c([Se]c3ccccc3)c(O)c([Se]c3ccccc3)c(O)c12 [compound 3] on SARS-CoV-2 M^pro (Severe acute respiratory syndrome coronavirus 2), anyone have it?
output: 4.6

input: Lab note: need Ki for O=c1cc(-c2ccccc2)oc2cc(OCC[Te]c3ccc(Cl)cc3)cc(O)c12 [compound 9] on SARS-CoV-2 M^pro (Severe acute respiratory syndrome coronavirus 2), anyone have it?
output: 0.77

input: Lab note: need Ki for O=c1cc(-c2ccccc2)oc2cc(OCC[Te]c3ccccc3)cc(O)c12 [compound 8] on SARS-CoV-2 M^pro (Severe acute respiratory syndrome coronavirus 2), anyone have it?
output: 1.1

input: Lab note: need Ki for Cc1ccc([Se]c2c(O)cc(O)c3c(=O)c(O)c(-c4ccc(O)c(O)c4)oc23)cc1 [2d] on SARS-CoV-2 M^pro (Severe acute respiratory syndrome coronavirus 2), anyone have it?
output: 3.8

---

Endpoint: melting point

input: Any idea what its melting point is? The compound is O=c1cc(-c2ccccc2)oc2cc(OCC[Se]c3ccccc3)cc(O)c12
output: 155 to 156 °C

input: Any idea what its melting point is? The compound is O=c1cc(-c2ccccc2)oc2cc(OCC[Te]c3ccc(Cl)cc3)cc(O)c12
output: 140.3 to 143 °C

input: Any idea what its melting point is? The compound is CCCCCCCCCC[Se]c1c(O)cc(O)c2c(=O)c(O)c(-c3ccc(O)c(O)c3)oc12
output: 155 to 159 °C

input: Any idea what its melting point is? The compound is COc1ccc([Se]c2c(O)cc(O)c3c(=O)c(O)c(-c4ccc(O)c(O)c4)oc23)cc1
output: 194 to 197 °C

input: Any idea what its melting point is? The compound is O=c1cc(-c2ccccc2)oc2cc(OCC[Se]c3cccc(C(F)(F)F)c3)cc(O)c12
output: 154.1 to 157.7 °C

input: Any idea what its melting point is? The compound is O=c1cc(-c2ccccc2)oc2cc(OCC[Se]Cc3ccccc3)cc(O)c12
output: 115.4 to 118.2 °C

input: Any idea what its melting point is? The compound is O=c1cc(-c2ccccc2)oc2cc(OCC[Te]c3ccccc3)cc(O)c12
output: 128 to 129 °C

input: Any idea what its melting point is? The compound is O=c1cc(-c2ccccc2)oc2c([Se]c3ccccc3)c(O)c([Se]c3ccccc3)c(O)c12
output: 188.7 to 190.6 °C

input: Any idea what its melting point is? The compound is Cc1cc(C)c([Se]CCOc2cc(O)c3c(=O)cc(-c4ccccc4)oc3c2)c(C)c1
output: 135.7 to 138.4 °C

input: Any idea what its melting point is? The compound is O=c1c(O)c(-c2ccc(O)c(O)c2)oc2c([Se]c3ccccc3)c(O)c([Se]c3ccccc3)c(O)c12
output: 206 to 210 °C

input: Any idea what its melting point is? The compound is Cc1ccccc1[Se]CCOc1cc(O)c2c(=O)cc(-c3ccccc3)oc2c1
output: 123.9 to 127.4 °C

input: Any idea what its melting point is? The compound is O=c1c(O)c(-c2ccc(O)c(O)c2)oc2c([Se]c3ccccc3)c(O)cc(O)c12
output: 211 to 213 °C

input: Any idea what its melting point is? The compound is Cc1ccc([Se]c2c(O)cc(O)c3c(=O)c(O)c(-c4ccc(O)c(O)c4)oc23)cc1
output: 203 to 206 °C

input: Any idea what its melting point is? The compound is O=c1cc(-c2ccccc2)oc2cc(OCC[Se]c3ccc(F)cc3)cc(O)c12
output: 171.1 to 173.7 °C

input: Any idea what its melting point is? The compound is CCCC[Se]c1c(O)cc(O)c2c(=O)c(O)c(-c3ccc(O)c(O)c3)oc12
output: 159 to 163 °C

input: Any idea what its melting point is? The compound is COc1ccccc1[Se]CCOc1cc(O)c2c(=O)cc(-c3ccccc3)oc2c1
output: 132.9 to 135.6 °C

---

Test system: SARS-CoV-2
Details: 25 µM; Vero cells, 2 days
Endpoint: Inhibition of the virus-caused cytopathic effect (CPE)

Before answering, review these 5 worked examples.
# Compound, Assayed target, Result
records = [
    ("O=c1c(O)c(-c2ccc(O)c(O)c2)oc2c([Se]c3ccccc3)c(O)c([Se]c3ccccc3)c(O)c12 [compound 3]", "SARS-CoV-2", "-"),
    ("COc1ccc([Se]c2c(O)cc(O)c3c(=O)c(O)c(-c4ccc(O)c(O)c4)oc23)cc1 [2e]", "SARS-CoV-2", "-"),
    ("Cc1ccc([Se]c2c(O)cc(O)c3c(=O)c(O)c(-c4ccc(O)c(O)c4)oc23)cc1 [2d]", "SARS-CoV-2", "+"),
    ("O=c1cc(-c2ccccc2)oc2cc(OCC[Te]c3ccc(Cl)cc3)cc(O)c12 [compound 9]", "SARS-CoV-2", "-"),
    ("O=c1c(O)c(-c2ccc(O)c(O)c2)oc2cc(O)cc(O)c12 [Quercetin 1, quercetin]", "SARS-CoV-2", "-"),
]

input: Any idea what its Inhibition of the virus-caused cytopathic effect (CPE) is? The compound is O=c1c(O)c(-c2ccc(O)c(O)c2)oc2c([Se]c3ccccc3)c(O)cc(O)c12 [2a]
output: -

Taken from paper PMC8268238.
